System: Human immunodeficiency virus 1
experiment: Antiviral activity against HIV1 3B in presence of 10% fetal calf serum and alpha1 acid glycoprotein
Assay type: functional, organism-based
run-conditions: Human immunodeficiency virus 1, 3B
Item-by-item account of EC50
quantity: EC50 (nM)

molecule	unit-symbol	experimental-result
CC(=O)N[C@H](CSc1ccc2ccccc2c1)C(=O)N[C@@H](Cc1ccccc1)[C@H](O)C(=O)N1CSC(C)(C)[C@H]1C(=O)NCc1ccccc1C	nM	95
COc1ccc(CSC[C@@H](NC(C)=O)C(=O)N[C@@H](Cc2ccccc2)[C@H](O)C(=O)N2CSC(C)(C)[C@H]2C(=O)NCc2ccccc2C)cc1	nM	89
CC(C)c1nc(CN(C)C(=O)N[C@H](C(=O)N[C@@H](Cc2ccccc2)C[C@H](O)[C@H](Cc2ccccc2)NC(=O)OCc2cncs2)C(C)C)cs1 [RITONAVIR]	nM	422
CC(=O)N[C@H](COCc1ccccc1)C(=O)N[C@@H](Cc1ccccc1)[C@H](O)C(=O)N1CSC(C)(C)[C@H]1C(=O)NCc1ccccc1C	nM	278
Cc1ccc(CSC[C@@H](NS(C)(=O)=O)C(=O)N[C@@H](Cc2ccccc2)[C@H](O)C(=O)N2CSC(C)(C)[C@H]2C(=O)NCc2ccccc2C)cc1	nM	110
CC(=O)N[C@H](CSCc1ccccc1)C(=O)N[C@@H](Cc1ccccc1)[C@H](O)C(=O)N1CSC(C)(C)[C@H]1C(=O)NCc1ccccc1C	nM	96
Cc1ccccc1CNC(=O)[C@H]1N(C(=O)[C@@H](O)[C@H](Cc2ccccc2)NC(=O)[C@@H](CSCc2ccccc2)NS(C)(=O)=O)CSC1(C)C	nM	88
Cc1ccccc1CNC(=O)[C@H]1N(C(=O)[C@@H](O)[C@H](Cc2ccccc2)NC(=O)[C@@H](CSc2cccc3ccccc23)NS(C)(=O)=O)CSC1(C)C	nM	347
Cc1ccccc1CNC(=O)[C@H]1N(C(=O)[C@@H](O)[C@H](Cc2ccccc2)NC(=O)[C@@H](CSc2ccc3ccccc3c2)NS(C)(=O)=O)CSC1(C)C	nM	88
Cc1c(O)cccc1C(=O)N[C@@H](CSc1ccccc1)[C@H](O)CN1C[C@H]2CCCC[C@H]2C[C@H]1C(=O)NC(C)(C)C	nM	606
COc1ccc(CSC[C@@H](NS(C)(=O)=O)C(=O)N[C@@H](Cc2ccccc2)[C@H](O)C(=O)N2CSC(C)(C)[C@H]2C(=O)NCc2ccccc2C)cc1	nM	94
Cc1ccccc1CNC(=O)[C@H]1N(C(=O)[C@@H](O)[C@H](Cc2ccccc2)NC(=O)[C@@H](COCc2ccccc2)NS(C)(=O)=O)CSC1(C)C	nM	90

###

tgt: Protease (Human immunodeficiency virus 1)
run-conditions: at 1 nM

chemical-smiles	inhibition
CC(=O)N[C@H](CCc1ccccc1)C(=O)N[C@@H](Cc1ccccc1)[C@H](O)C(=O)N1CSC(C)(C)[C@H]1C(=O)NCc1ccccc1C	45%
Cc1ccccc1CNC(=O)[C@H]1N(C(=O)[C@@H](O)[C@H](Cc2ccccc2)NC(=O)[C@@H](COCc2ccccc2)NS(C)(=O)=O)CSC1(C)C	59%
Cc1ccccc1CNC(=O)[C@H]1N(C(=O)[C@@H](O)[C@H](Cc2ccccc2)NC(=O)[C@@H](CSc2cccc3ccccc23)NS(C)(=O)=O)CSC1(C)C	74%

###

Item-by-item account of EC50
Test system: Human immunodeficiency virus 1
experiment: Antiviral activity against HIV1 3B in human MT4 cells assessed as inhibition of viral-induced cytopathic effect by MTT method
Type: functional, organism-based
run-conditions: Human immunodeficiency virus 1, 3B
quantity: EC50

chemical-smiles	experimental-result
CC(=O)N[C@H](CS(=O)(=O)c1ccc2ccccc2n1)C(=O)N[C@@H](Cc1ccccc1)[C@H](O)C(=O)N1CSC(C)(C)[C@H]1C(=O)NCc1ccccc1C	94 nM
CC(=O)N[C@H](CSCc1ccccc1)C(=O)N[C@@H](Cc1ccccc1)[C@H](O)C(=O)N1CSC(C)(C)[C@H]1C(=O)NCc1ccccc1C	15 nM
Cc1ccc(CS(=O)(=O)C[C@@H](NS(C)(=O)=O)C(=O)N[C@@H](Cc2ccccc2)[C@H](O)C(=O)N2CSC(C)(C)[C@H]2C(=O)NCc2ccccc2C)cc1	125 nM

###

experiment: Cytotoxicity against human MT4 cells by MTT assay
Type: cell-based
Item-by-item account of CC50
quantity: CC50 (µM)

chemical-smiles	unit-symbol	relation-operator	experimental-result
CC(=O)N[C@H](CS(=O)(=O)c1cccc2ccccc12)C(=O)N[C@@H](Cc1ccccc1)[C@H](O)C(=O)N1CSC(C)(C)[C@H]1C(=O)NCc1ccccc1C	µM	=	16
CC(=O)N[C@H](CS(=O)(=O)c1ccc(F)cc1)C(=O)N[C@@H](Cc1ccccc1)[C@H](O)C(=O)N1CSC(C)(C)[C@H]1C(=O)NCc1ccccc1C	µM	>	28
CC(=O)N[C@H](CSCc1ccc(C)cc1)C(=O)N[C@@H](Cc1ccccc1)[C@H](O)C(=O)N1CSC(C)(C)[C@H]1C(=O)NCc1ccccc1C	µM	=	8.8
Cc1ccccc1CNC(=O)[C@H]1N(C(=O)[C@@H](O)[C@H](Cc2ccccc2)NC(=O)[C@@H](CS(=O)(=O)Cc2ccccc2)NS(C)(=O)=O)CSC1(C)C	µM	>	27
Cc1ccccc1CNC(=O)[C@H]1N(C(=O)[C@@H](O)[C@H](Cc2ccccc2)NC(=O)[C@@H](CSc2cccc3ccccc23)NS(C)(=O)=O)CSC1(C)C	µM	=	4.4
Cc1ccccc1CNC(=O)[C@H]1N(C(=O)[C@@H](O)[C@H](Cc2ccccc2)NC(=O)[C@@H](CSc2ccc3ccccc3c2)NS(C)(=O)=O)CSC1(C)C	µM	=	6.1

###

System: Human immunodeficiency virus 1
experiment: Antiviral activity against wild type HIV1 NL432
Assay type: functional, organism-based
run-conditions: Human immunodeficiency virus 1, NL432
quantity: EC50 (nM)

chemical-smiles	experimental-result
CC(=O)N[C@H](CSCc1ccccc1)C(=O)N[C@@H](Cc1ccccc1)[C@H](O)C(=O)N1CSC(C)(C)[C@H]1C(=O)NCc1ccccc1C	18
Cc1ccc(CSC[C@@H](NS(C)(=O)=O)C(=O)N[C@@H](Cc2ccccc2)[C@H](O)C(=O)N2CSC(C)(C)[C@H]2C(=O)NCc2ccccc2C)cc1	17
Cc1ccccc1CNC(=O)[C@H]1N(C(=O)[C@@H](O)[C@H](Cc2ccccc2)NC(=O)[C@@H](CSc2cccc3ccccc23)NS(C)(=O)=O)CSC1(C)C	9.3
CC(=O)N[C@H](CSc1cccc2ccccc12)C(=O)N[C@@H](Cc1ccccc1)[C@H](O)C(=O)N1CSC(C)(C)[C@H]1C(=O)NCc1ccccc1C	20
CC(=O)N[C@H](COCc1ccccc1)C(=O)N[C@@H](Cc1ccccc1)[C@H](O)C(=O)N1CSC(C)(C)[C@H]1C(=O)NCc1ccccc1C	23
Cc1ccccc1CNC(=O)[C@H]1N(C(=O)[C@@H](O)[C@H](Cc2ccccc2)NC(=O)[C@@H](CSCc2ccccc2)NS(C)(=O)=O)CSC1(C)C	20
Cc1ccccc1CNC(=O)[C@H]1N(C(=O)[C@@H](O)[C@H](Cc2ccccc2)NC(=O)[C@@H](COCc2ccccc2)NS(C)(=O)=O)CSC1(C)C	22
COc1ccc(CSC[C@@H](NS(C)(=O)=O)C(=O)N[C@@H](Cc2ccccc2)[C@H](O)C(=O)N2CSC(C)(C)[C@H]2C(=O)NCc2ccccc2C)cc1	16
CC(=O)N[C@H](CSCc1ccc(C)cc1)C(=O)N[C@@H](Cc1ccccc1)[C@H](O)C(=O)N1CSC(C)(C)[C@H]1C(=O)NCc1ccccc1C	22
CC(=O)N[C@H](CSc1ccc2ccccc2c1)C(=O)N[C@@H](Cc1ccccc1)[C@H](O)C(=O)N1CSC(C)(C)[C@H]1C(=O)NCc1ccccc1C	17
CC(=O)N[C@H](CS(=O)(=O)c1ccc(Cl)cc1)C(=O)N[C@@H](Cc1ccccc1)[C@H](O)C(=O)N1CSC(C)(C)[C@H]1C(=O)NCc1ccccc1C	88
Cc1ccccc1CNC(=O)[C@H]1N(C(=O)[C@@H](O)[C@H](Cc2ccccc2)NC(=O)[C@@H](CSc2ccc3ccccc3c2)NS(C)(=O)=O)CSC1(C)C	17
CC(=O)N[C@H](CCc1ccccc1)C(=O)N[C@@H](Cc1ccccc1)[C@H](O)C(=O)N1CSC(C)(C)[C@H]1C(=O)NCc1ccccc1C	78
CSC[C@H](NC(=O)COc1cccc2cnccc12)C(=O)N[C@@H](Cc1ccccc1)[C@H](O)C(=O)N1CSC[C@H]1C(=O)NC(C)(C)C	36

###

experiment: Cytotoxicity against human MT4 cells by MTT assay
Format: cell-based
Item-by-item account of CC50
quantity: CC50 (µM)

chemical-smiles	quantity	relation-operator	experimental-result
CC(=O)N[C@H](CSc1ccc2ccccc2n1)C(=O)N[C@@H](Cc1ccccc1)[C@H](O)C(=O)N1CSC(C)(C)[C@H]1C(=O)NCc1ccccc1C	CC50	=	9.7
Cc1ccccc1CNC(=O)[C@H]1N(C(=O)[C@@H](O)[C@H](Cc2ccccc2)NC(=O)[C@@H](CCc2ccccc2)NS(C)(=O)=O)CSC1(C)C	CC50	=	11
CC(=O)N[C@H](CSCc1ccccc1)C(=O)N[C@@H](Cc1ccccc1)[C@H](O)C(=O)N1CSC(C)(C)[C@H]1C(=O)NCc1ccccc1C	CC50	=	15
Cc1ccccc1CNC(=O)[C@H]1N(C(=O)[C@@H](O)[C@H](Cc2ccccc2)NC(=O)[C@@H](CS(=O)(=O)c2cccc3ccccc23)NS(C)(=O)=O)CSC1(C)C	CC50	=	19
CC(=O)N[C@H](CS(=O)(=O)c1ccc2ccccc2n1)C(=O)N[C@@H](Cc1ccccc1)[C@H](O)C(=O)N1CSC(C)(C)[C@H]1C(=O)NCc1ccccc1C	CC50	>	27
Cc1ccccc1CNC(=O)[C@H]1N(C(=O)[C@@H](O)[C@H](Cc2ccccc2)NC(=O)[C@@H](CS(=O)(=O)c2ccc3ccccc3c2)NS(C)(=O)=O)CSC1(C)C	CC50	=	19
Cc1ccc(CS(=O)(=O)C[C@@H](NS(C)(=O)=O)C(=O)N[C@@H](Cc2ccccc2)[C@H](O)C(=O)N2CSC(C)(C)[C@H]2C(=O)NCc2ccccc2C)cc1	CC50	>	26
Cc1ccccc1CNC(=O)[C@H]1N(C(=O)[C@@H](O)[C@H](Cc2ccccc2)NC(=O)[C@@H](COCc2ccccc2)NS(C)(=O)=O)CSC1(C)C	CC50	=	17
